All figures here come from patent US9783521B2.

molecular target: recombinant human PDE 10A1 (Homo sapiens); construct: made in house; host or cells: Sf9 insect cells, baculoviral system; assay: PDE10 biochemical assay (two-step Thompson and Appleman method or SPA)
observedProperty: IC50

>>> print(df.to_string())
                                   molecule  assayvalue
0  CCOc1cc(/C=N/NC(=O)C(OC)c2ccc(Cl)cc2)ccc1OC (centres unmarked)      ≤ 1 µM
1  COc1ccc(/C=N/N(C)C(=O)C(OC)c2ccccc2)cc1OC (centres unmarked)      ≤ 1 µM

###

# IC50 annotations
target: recombinant human PDE 10A1 (Homo sapiens, UniProt Q9Y233); construct: made in house; host or cells: Sf9 insect cells, baculoviral system; test: PDE10 biochemical assay (two-step Thompson and Appleman method or SPA); conditions: PDE10 inhibition; read-out: IC50
Sequence (Q9Y233 1-779 isoform Q9Y233-1): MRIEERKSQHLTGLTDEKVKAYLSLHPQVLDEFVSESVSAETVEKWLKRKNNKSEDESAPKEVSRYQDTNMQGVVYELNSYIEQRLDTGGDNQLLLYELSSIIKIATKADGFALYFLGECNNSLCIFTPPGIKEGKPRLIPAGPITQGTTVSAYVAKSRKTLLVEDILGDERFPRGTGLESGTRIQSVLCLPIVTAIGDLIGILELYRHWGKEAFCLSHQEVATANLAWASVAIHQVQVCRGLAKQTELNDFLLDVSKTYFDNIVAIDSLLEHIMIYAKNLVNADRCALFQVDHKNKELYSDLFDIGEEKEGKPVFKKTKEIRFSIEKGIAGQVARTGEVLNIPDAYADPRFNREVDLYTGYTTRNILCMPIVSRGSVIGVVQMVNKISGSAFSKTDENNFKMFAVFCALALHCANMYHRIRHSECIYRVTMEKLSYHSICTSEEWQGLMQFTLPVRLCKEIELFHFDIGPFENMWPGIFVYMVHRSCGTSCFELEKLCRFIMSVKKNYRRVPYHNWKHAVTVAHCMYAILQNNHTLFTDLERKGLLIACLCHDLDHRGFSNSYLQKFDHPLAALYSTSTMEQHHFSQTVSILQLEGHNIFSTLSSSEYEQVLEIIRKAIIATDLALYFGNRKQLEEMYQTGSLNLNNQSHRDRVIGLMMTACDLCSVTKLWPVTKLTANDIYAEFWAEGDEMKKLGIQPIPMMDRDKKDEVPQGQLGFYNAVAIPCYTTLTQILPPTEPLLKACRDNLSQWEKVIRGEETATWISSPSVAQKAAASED
observedProperty: IC50

>>> df
                                    compound  assayvalue
 0  COc1cc(/C=N/NC(=O)C(OC)c2cccc(N(C)C)c2)cc(OC)c1O (centres unmarked) [Compound 12-124]   ≤ 1000 nM
 1  COc1cc(/C=N/NC(=O)Cc2ccccc2)cc(OC)c1OC [Compound 12-89]   ≤ 1000 nM
 2  CCOC(C(=O)N/N=C/c1cc(OC)c(Br)c(OC)c1)c1ccc2c(c1)OCCN2C (centres unmarked) [Compound 12-84]   ≤ 1000 nM
 3  COc1cc(/C=N/NC(=O)C(c2ccccc2)c2ccccc2)cc(OC)c1OC [Compound 3-1]   ≤ 1000 nM
 4  COc1cc(/C=N/NC(=O)C(OC)c2ccccc2)cc(OC)c1OC (centres unmarked) [Compound 12-17]   ≤ 1000 nM
 5  COc1cc(/C=N/NC(=O)C(OC)c2ccc(F)cc2)cc(OC)c1Br (centres unmarked) [Compound 12-1]   ≤ 1000 nM
 6  COc1cc(/C=N/NC(=O)C(OC)c2ccc(N3CCCC3)cc2)cc(OC)c1Cl (centres unmarked) [Compound 12-126]   ≤ 1000 nM
 7  COc1cc(/C=N/NC(=O)C(OC)c2ccc(Cl)cc2)cc(OC)c1OC (centres unmarked) [Compound 12-15]   ≤ 1000 nM
 8  COc1cc(/C=N/NC(=O)C(OC)c2cccc(N(C)C)c2)cc(Br)c1OC (centres unmarked) [Compound 12-122]   ≤ 1000 nM
 9  COc1cc(/C=N/NC(=O)C(OC)c2ccccc2)ccc1C (centres unmarked) [Compound 12-20]   ≤ 1000 nM
10  COc1ccc(/C=N/NC(=O)C(OC)c2ccc3ccccc3c2)cc1OC (centres unmarked) [Compound 12-23]   ≤ 1000 nM
11  CCOC(C(=O)N/N=C/c1cc(OC)c(OC)c(OC)c1)c1cccc2c1OCCO2 (centres unmarked) [Compound 12-130]   ≤ 1000 nM
12  COc1cc(/C=N/NC(=O)C(OC)c2ccccc2)cc(OC)c1 (centres unmarked) [Compound 12-25]   ≤ 1000 nM
13  COc1cc(/C=N/NC(=O)C(OC)c2ccc(F)cc2)cc(Br)c1OC (centres unmarked) [Compound 12-3]   ≤ 1000 nM
14  CCOC(C(=O)N/N=C/c1cc(OC)c(Br)c(OC)c1)c1cccc2c1OCCO2 (centres unmarked) [Compound 12-131]   ≤ 1000 nM
15  CCOC(C(=O)N/N=C/c1cc(OC)c(Br)c(OC)c1)c1ccc2c(c1)OCCO2 (centres unmarked) [Compound 12-87]   ≤ 1000 nM
16  CCOC(C(=O)N/N=C/c1cc(OC)c(Br)c(OC)c1)c1cccc2ncccc12 (centres unmarked) [Compound 12-60]   ≤ 1000 nM
